// data source = the RNAGym collection of RNA variant scans (doi:10.1101/gr.219683.116)

The reader will find reported exon inclusion enrichment index values listed item by item below.
B1: mRNA-splicing (parent)
chain: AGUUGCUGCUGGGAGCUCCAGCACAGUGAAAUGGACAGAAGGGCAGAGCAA

Variants of: B1
Test: exon inclusion enrichment index; higher = more inclusion; WT1 exon 5 minigene, HEK293

>  <mutation-name>
G5C C6U G8C C9U U10C G15A C16G

>  <data-value>
1.28

$$$$
>  <mutation-name>
G5U G8U C9U G38U A39G

>  <data-value>
0.0405

$$$$
>  <mutation-name>
G5U G8U C9U A20U G21A

>  <data-value>
0.0475

$$$$
>  <mutation-name>
C6A U7A C9A U10A U32C G33C

>  <data-value>
1.09

$$$$

Quick one: exon inclusion enrichment index for G5C C6U U7G C9U U10C ?
0.743

Quick one: exon inclusion enrichment index for G5A C6U U7A G8U C9A C44G A45C ?
0.138

Quick one: exon inclusion enrichment index for G5C C6U G8C C9U U10C A20G ?
2.69

Quick one: exon inclusion enrichment index for G5A U7C G8A U10C A47G G48U ?
0.325

Quick one: exon inclusion enrichment index for G5C C6G U7C U10C U27C G28U ?
2.8

Quick one: exon inclusion enrichment index for G2U U3C C6A U7A C9A U10A ?
2.31

Quick one: exon inclusion enrichment index for G5C C6G U7C U10C C24G A25U ?
3.91

Quick one: exon inclusion enrichment index for C6A U7A C9A U10A A29G A30U ?
0.163

Quick one: exon inclusion enrichment index for G5A U7G G8A U10C ?
2.7

Quick one: exon inclusion enrichment index for C6A U7A C9A U10A A37C G38C ?
0.896

Quick one: exon inclusion enrichment index for C6A U7C C9A U10C G11C G12C ?
2.59

Quick one: exon inclusion enrichment index for G5U G8U C9U U17A ?
0.136

Quick one: exon inclusion enrichment index for G5U G8U C9U G12A ?
0.0372

Quick one: exon inclusion enrichment index for C6A U7A C9A U10A C36G A37U ?
0.216

Quick one: exon inclusion enrichment index for C6A U7C G8A C9U U10C ?
2.34

Quick one: exon inclusion enrichment index for G5U G8U C9U U27A G28C ?
0.109
